- testedOn: NADPH oxidase 2 (Homo sapiens)
- experimentDescription: NOX2-dependent H2O2 signal modulators, primary screen, NOX inhibitor project, cell-based, HEK293-NOX2, PMA-stimulated, Amplex Red fluorescence (AID 1159); also: test concentration not given here
- assayConditions: 45 min, higher = more signal, called active from +8 up or from −8 down
What z-score was measured for each of the following?
Answers are plain numbers.

Observe how each entry below is paired with its result.
- compound: "CCCCC(=C=CC[C@H](O)c1ccccc1OCCO)C[C@H](O)COCc1ccccc1"
  z-score: -1.02
- compound: "C=CC[C@]1(C(=O)NCc2ccccc2)N=C(c2ccc(OCCCO)cc2)O[C@H]1c1ccccc1"
  z-score: -2.86
- compound: "CC(CCN1CCc2nc(-c3ccccc3)c(-c3ccccc3)cc2C1)=NOC[C@@H](C)[C@H](OCc1ccccc1)C(C)C"
  z-score: 0.837
- compound: "CC(C)CON=C1C[C@@H](O)[C@@H](O)[C@@H]2[C@@H]3C(=O)N(Cc4ccccc4)C(=O)[C@@H]3CC[C@@H]12"
  z-score: 1.39
- compound: "O=C1[C@H]2[C@H]3[C@H](O)[C@H](O)CC(=NOCc4ccccc4)[C@@H]3CC[C@H]2C(=O)N1Cc1ccccc1"
  z-score: -0.85
- compound: "COCCOC(=O)N1C(=O)[C@@]2(c3cc(C#CCNC(N)=O)ccc31)[C@H](c1ccccc1OCCO)N1[C@H](c3ccccc3)[C@H](c3ccccc3)OC(=O)[C@H]1[C@@H]2C(=O)N1CCN(c2ncccn2)CC1"
  z-score: 1.63
- compound: "COC(=O)C1=C(C)N(Cc2ccccc2)[C@]23O[C@](C(=O)OC)(C(=O)N2[C@@H]1c1ccccc1)[C@H]1CCOC(=O)[C@H]13"
  z-score: 0.902
- compound: "CC(CCN1CCCCc2nc(C)c(C)cc21)=NOC(C)CN1CCCCc2nc(C)c(C)cc21 (stereo not given)"
  z-score: -1.47

// each listed compound needs a value for z-score
1. COC(=O)CC=C[C@@H](C)[C@@H](C=NO[C@@H](C)c1cc(-c2c(C)cc(C)cc2C)no1)OC
2. c1ccc(C2NCCc3c2[nH]c2ccccc32)cc1 (stereo not given)
3. C=CCNC(=O)[C@H]1[C@@H]2C(=O)O[C@@H](c3ccccc3)[C@@H](c3ccccc3)N2[C@@H](c2ccc(O)cc2)[C@]12C(=O)N(C(=O)OCCOC)c1ccc(C#CC3=CCCCC3)cc12
4. COC(=O)[C@@]1(Cc2ccc(F)cc2)[C@@H]2C(=CC(=O)[C@H]2CC(=O)C(=O)N(C)C)CN1C(=O)c1ccccc1
5. CO[C@H]1COC(=O)[C@@H]2CCCN2C(=O)CC=C[C@@H](C)[C@H](OC)COC(=O)CC=C[C@@H]1C
6. CO[C@H]1COC(=O)[C@H](C)NC(=O)[C@@H](C)COC(=O)CC=C[C@@H]1C
7. C#CCCCON=C1C[C@@H](O)[C@@H](O)[C@@H]2[C@@H]3C(=O)N(c4cccc(Oc5ccccc5)c4)C(=O)[C@@H]3CC[C@@H]12

[-1.04, 0.943, 1.96, 0.507, -0.331, -0.835, -2.13]

----------
- experimentDescription: fission yeast growth modulation, primary screen, strain 972, OD600, 24 h, no modulator (AID 1090);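 also: basal condition with compound alone and no growth modifier present; test concentration not given here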
- assayConditions: S. pombe 972 growth, higher = more signal, called active from +8 up or from −8 down
Record form. Attribute: z-score. Fill in for each entry.
One number for each entry.

Recorded z-score, per entry:
- compound: "CC(=O)OC[C@H]1O[C@H](CC=NOC[C@@H](C)[C@H](OCc2ccccc2)C(C)C)C=C[C@@H]1OC(C)=O"
  z-score: -0.0269
- compound: "C[C@@H](c1ccccc1)N1C(=O)[C@H]2[C@H]3[C@H](O)[C@H](O)CC(=NNC(=O)OCc4ccccc4)[C@H]3CC[C@H]2C1=O"
  z-score: 0.408
- compound: "CCN1C(=O)[C@H]2[C@H]3[C@H](O)[C@H](O)CC(=NOCc4ccccc4)[C@H]3CC[C@H]2C1=O"
  z-score: -0.337
- compound: "CC(CCC(=O)OC[C@H]1O[C@H](C#Cc2ccccc2)C=C[C@@H]1Oc1ccc(C)cc1)=NOC[C@@H](O)COCc1ccco1"
  z-score: 0.134
- compound: "CN(C)c1ccc(C(O)C2C=CC3C(=O)N(c4ccccc4)C(=O)C3N2Nc2ccccc2F)cc1 (configuration not stated)"
  z-score: -13.6

// for each compound below, give its z-score
1. CC[C@@H](c1ccccc1)n1c(=O)n2n(c1=O)[C@H]1[C@H](O)[C@@H]3O[C@@H]3C(=NOCC(C)C)[C@H]1CC2
2. CCOC(=O)[C@H](Cc1ccccc1)NC(=O)CCC1CC(OC(=O)NCc2ccc3c(c2)OCO3)CC2(CCCC(COC(=O)NCc3ccccc3)O2)O1 (some centres not stated)
3. CC1CC/C=C\[C@H]2OC34C=CCN(Cn5nnc6ccccc65)C(=O)[C@H]3N(CCO)C(=O)[C@@H]4C2C(=O)O1 (some centres not stated)
4. C#CCCCON=C1C[C@@H](O)[C@@H](O)[C@@H]2[C@@H]3C(=O)N(CCC(=O)OCC)C(=O)[C@@H]3CC[C@@H]12
5. O=C1C2C=CC(C(O)c3ccc([N+](=O)[O-])cc3)N(Nc3ccc([N+](=O)[O-])cc3)C2C(=O)N1c1ccccc1 (configuration not stated)
6. CO[C@H]([C@@H](C)[C@H](OC)c1ccccc1)[C@H](C)[C@@H](OC)[C@H](C)C(C)=O

[-0.0534, 0.158, -1.64, 0.068, 1.53, -0.0357]

I would be grateful if you could provide z-score for each of the following entries.
1. CCCCCCc1nc(CCCc2cc3c(c(CCCCCC)n2)[Si](C(C)C)(C(C)C)O[C@H]3c2ccccc2)cc2c1[Si](C(C)C)(C(C)C)O[C@H]2c1ccccc1
2. C[C@H]1Cc2c(-c3ccccc3)nc3c(c2CO1)CN(CCOc1ccccc1)CC3
3. CCCC[C@@H](O)C1=C(C)C[C@H]2C(=O)N(Cc3ccccc3)C(=O)[C@H]2[C@H]1CO
4. CC(C)=C1C(=O)C(c2ccccc2)=C2CN3C(=O)N(CCc4ccccc4)C(=O)[C@]3(Cc3ccc(F)cc3)[C@H]21
5. CC(C)(C)N1CC=CC23O[C@@H]4C=CCCOC(=O)C4[C@H]2C(=O)N(CCCCCO)[C@@H]3C1=O (some centres not stated)
6. CO[C@@H]1COC(=O)CC=C[C@@H](C)[C@@H]2C=C[C@@H](O)[C@@H](COC(=O)CC=C[C@H]1C)O2

-0.643
-1.24
-2.19
-0.0353
0.501
-0.862
